# Species: Homo sapiens
# TEST_NAME: Liver toxicity in human assessed as induction of drug-induced liver injury by measuring severity class index; note: key of the grades not given here
REPORTED_ENDPOINT: DILI_severity_class

Sample answers from the record:
For the molecule shown here, CCC(=O)NCC[C@@H]1CCc2ccc3c(c21)CCO3 [RAMELTEON] , give the reported DILI_severity_class. 0

For the molecule shown here, O=C(O)c1cc(/N=N/c2ccc(S(=O)(=O)Nc3ccccn3)cc2)ccc1O [SULFASALAZINE] , give the reported DILI_severity_class. 5

For the molecule shown here, Cc1cn(-c2cc(NC(=O)c3ccc(C)c(Nc4nccc(-c5cccnc5)n4)c3)cc(C(F)(F)F)c2)cn1 [NILOTINIB] , give the reported DILI_severity_class. 4

---
For the molecule shown here, O=C1NC(c2ccccc2)(c2ccccc2)C(=O)N1COP(=O)(O)O [FOSPHENYTOIN] , give the reported DILI_severity_class. 8

For the molecule shown here, COC(c1ccccc1)(c1ccccc1)[C@H](Oc1nc(C)cc(C)n1)C(=O)O [AMBRISENTAN] , give the reported DILI_severity_class. 7

For the molecule shown here, CC1=NS(=O)(=O)c2cc(Cl)ccc2N1 [DIAZOXIDE] , give the reported DILI_severity_class. 3

For the molecule shown here, CC(C)C(=O)Nc1ccc([N+](=O)[O-])c(C(F)(F)F)c1 [FLUTAMIDE] , give the reported DILI_severity_class. 8

For the molecule shown here, NC(=O)c1cn(Cc2c(F)cccc2F)nn1 [RUFINAMIDE] , give the reported DILI_severity_class. 3

For the molecule shown here, CCn1cc(C(=O)O)c(=O)c2cc(F)c(N3CCNCC3)cc21 [NORFLOXACIN] , give the reported DILI_severity_class. 3

For the molecule shown here, CC(C)Cc1ccc(C(C)C(=O)O)cc1 (stereo not drawn) [IBUPROFEN] , give the reported DILI_severity_class. 3

For the molecule shown here, Cc1cn[nH]c1 [FOMEPIZOLE] , give the reported DILI_severity_class. 3

For the molecule shown here, CC(C)(O)c1ccccc1CC[C@@H](SCC1(CC(=O)O)CC1)c1cccc(/C=C/c2ccc3ccc(Cl)cc3n2)c1 [MONTELUKAST] , give the reported DILI_severity_class. 3

For the molecule shown here, CCCCCCCC/C=C\CCCCCCCC(=O)O.NCCO [ETHANOLAMINE OLEATE] , give the reported DILI_severity_class. 0

For the molecule shown here, O=P1(N(CCCl)CCCl)NCCCO1 (stereo not drawn) [CYCLOPHOSPHAMIDE ANHYDROUS] , give the reported DILI_severity_class. 5

For the molecule shown here, CC(=O)[C@]1(O)Cc2c(O)c3c(c(O)c2[C@@H](O[C@H]2C[C@H](N)[C@H](O)[C@H](C)O2)C1)C(=O)c1ccccc1C3=O [IDARUBICIN] , give the reported DILI_severity_class. 3

For the molecule shown here, CC(=O)Oc1ccc(C2(c3ccc(OC(C)=O)cc3)C(=O)N(C(C)=O)c3ccccc32)cc1 [TRIACETYLDIPHENOLISATIN] , give the reported DILI_severity_class. 8

For the molecule shown here, C[C@@H](c1ncncc1F)[C@](O)(Cn1cncn1)c1ccc(F)cc1F [VORICONAZOLE] , give the reported DILI_severity_class. 8

For the molecule shown here, COCC1=C(C(=O)O)N2C(=O)[C@@H](NC(=O)/C(=N\OC)c3csc(N)n3)[C@H]2SC1 [CEFPODOXIME] , give the reported DILI_severity_class. 3
